# Assay summary: Animal pharmacokinetics in ICR mice
# Format: in vivo
# Experimental setup: ICR, in vivo; mouse, IV, 10 mg/kg
# Method: Pharmacokinetics of the compounds of 1, 2, 7, 8 11 and 15 were evaluated in ICR mice (6˜8 weeks, 20˜25 g) following intravenous (IV) administration at 10 mg/kg and per oral (PO) administration at 10 mg/kg dose level, respectively. Especially, the additional dose level of Compound 1 was 30 mg/kg. For serum compound analysis, blood samples were collected by cardiac puncture over 24 hr time course. […] Lower limit of quantification (LLOQ) was at 1 ng/mL. […]
Endpoint label: MRT

CCS(=O)(=O)OC[C@@H]1N=C(c2ccc(Cl)cc2)c2cc(OC)ccc2-n2c(C)nnc21 = 3.9 h

Moving on to the next compound.
Ask | What MRT value was documented for this compound, COc1ccc2c(c1)C(c1ccc(Cl)cc1)=N[C@@H](COS(C)(=O)=O)c1nnc(C)n1-2 ?
Reply | 4.7 h
